Values from PubChem BioAssay (NCI)

System: SK-MEL-28 melanoma
Experiment: NCI-60 one-dose screen, 48 h (100 = growth as untreated, 0 = no growth, -100 = all killed)
Settings: 10 µM unless noted
About 83,000 compounds went through this panel and 20% of them were active in at least one assay; those are over-represented in the sample as a whole.
Class boundaries, taken from values of growth, are as follows: zone 1 = under 30%, zone 2 = from 30% up to 90%, zone 3 = 90% and over

[ask] Determine which band this compound sits in: COc1ccc(SC2c3ccc(O)cc3Oc3nc(N)c(C#N)c(N)c32)cc1 (stereo not drawn)
[reply] zone 3

[ask] Determine which band this compound sits in: `O=C(O)c1ccc(-c2nn(-c3ccc(C(=O)O)cc3)cc2/C=N/Nc2c(F)c(F)cc(F)c2F)cc1`
[reply] zone 3

[ask] Determine which band this compound sits in: `COC(=O)c1oc2c(C(C)=O)c(OCCN3CCCCC3)ccc2c1C`
[reply] zone 3

[ask] Determine which band this compound sits in: `COc1ccc(-c2nnc(SCC(=O)Nc3ccc(C(=O)/C=C/c4ccc(OC)c(OC)c4)cc3)o2)cc1`
[reply] zone 3

[ask] Determine which band this compound sits in: `C=C1C(=O)O[C@H]2[C@H]1CC/C(COC(=O)c1ccc(Cl)nc1)=C\CC[C@@]1(C)O[C@@H]21`
[reply] zone 1

[ask] Determine which band this compound sits in: `COc1ccc(-n2c(-c3ccc(NC(=O)CCCl)cc3)nnc2-c2cc(OC)c(OC)c(OC)c2)cc1`
[reply] zone 1

[ask] Determine which band this compound sits in: `NS(=O)(=O)c1ccc(CCN2C(=O)/C(=C\c3ccc(Cl)cc3)C=C2c2ccc(Oc3ccccc3)cc2)cc1`
[reply] zone 2

[ask] Determine which band this compound sits in: `CNCCCOc1c(Br)cc(CCNC(=O)/C(Cc2cc(Br)c(OC)c(Br)c2)=N/O)cc1Br`
[reply] zone 1

[ask] Determine which band this compound sits in: COc1ccc(C[C@H](N)C(=O)N[C@@H]2[C@@H](CO)OC(n3cnc4c(N(C)C)ncnc43)[C@@H]2O)cc1 (stereo partly drawn)
[reply] zone 1

[ask] Determine which band this compound sits in: `CCN(CC)CCNc1ccc([N+](=O)[O-])c2sc3cc(Cl)ccc3c(=O)c12`
[reply] zone 1

[ask] Determine which band this compound sits in: Cc1ccc2c(C3C(C#N)=C(N)Oc4cc5ccccc5cc43)cc(=O)oc2c1 (stereo not drawn)
[reply] zone 2

[ask] Determine which band this compound sits in: `O=C(O)c1ccc2nc(-c3ccc(OCCCCCOc4ccc(-c5nc6ccc(C(=O)O)cc6[nH]5)cc4)cc3)[nH]c2c1`
[reply] zone 2

[ask] Determine which band this compound sits in: `O=C1C(Cl)=C(Nc2cccc3cc4ccccc4nc23)C(=O)c2ccccc21`
[reply] zone 3

[ask] Determine which band this compound sits in: CCOC(=O)C1=C(N)Oc2cc(OC)ccc2C1c1ccc(F)c(F)c1 (stereo not drawn)
[reply] zone 2

[ask] Determine which band this compound sits in: `COc1cc2ncnc(Oc3ccc(NC(=O)Nc4ccc(C5(C#N)CCCC5)cc4)c4ccccc34)c2cc1OC`
[reply] zone 2

[ask] Determine which band this compound sits in: `Nc1ncnc2c1c(-c1ccc(Oc3ccccc3)cc1)nn2C[C@@H]1SSC[C@H]1O`
[reply] zone 2

[ask] Determine which band this compound sits in: `COc1ccc(Cl)cc1NC(=O)c1cc2c([nH]1)-c1nc(NC(=O)C(C)(C)C)sc1CC2`
[reply] zone 3

[ask] Determine which band this compound sits in: `Cc1cccc(Cc2cnc(NC(=O)CCc3ccc(C)o3)s2)c1`
[reply] zone 2
